System: COLO 205
assay: NCI tumour cell line growth inhibition, 48 h
Calls of active or inactive are those of the source. No stated cut-off is given here; in the data, active = GI50 up to about 1.1 µM and inactive = higher.
measuredParameter: GI50

compound	measuredParameter	result
O=C(O)C(F)(F)C(F)(F)C(F)(F)C(F)(F)C(=O)O	GI50	> 100 µM (inactive)
CC[C@]1(Cc2ccc(OC)c(OC)c2)C=[N+]([O-])O[C@H](OC2CCCC2(c2ccccc2)c2ccccc2)[C@@H]1OC(=O)c1ccccc1 (stereo not given in full)	GI50	8.79 µM (inactive)
COc1ccc(-c2cc3ccccc3oc2=O)cc1OC	GI50	> 100 µM (inactive)
CCOC(=O)c1cnc2c(ccc3ncccc32)c1OCC	GI50	> 100 µM (inactive)

Record `O=C1C(=Cc2ccc([N+](=O)[O-])o2)C(=O)N(CCc2ccccc2)S(=O)(=O)N1CCc1ccccc1` . Reported GI50: 20.2 µM (inactive)

Record `Cn1c(N)c(Cc2ccc(Cl)cc2)c(=O)[nH]c1=O` . Reported GI50: > 100 µM (inactive)

---

Listed molecules paired with reported GI50
System: 786-0
assay: NCI tumour cell line growth inhibition, 48 h
The source made the active and inactive calls. No stated cut-off is given here; in the data, active = GI50 up to about 1.1 µM and inactive = higher.

Some molecules with recorded GI50:
COc1ccc(-c2cc3ccccc3oc2=O)cc1OC 70 µM (inactive)
Cc1cc(NC(=O)C(=O)Cc2cnc3ccccc3n2)c(S(=O)(=O)O)cc1Cl > 100 µM (inactive)
CCCCCc1c(CCCC)c(O)nc2nc(NC(=O)CCCC)ccc12 > 100 µM (inactive)
O=C(O)c1[nH]c(=O)[nH]c(=O)c1CN1CCCCC1 > 100 µM (inactive)
c1ccc2c3nnc(c2c1)SCCCSc1nnc(c2ccccc12)SCCCS3 54.1 µM (inactive)

Here's the next entry for you.
Hey, 786-0 data for `O=C1CCCN(c2ccccc2)N1` : GI50 came out at > 100 µM (inactive)

---

System: SF-268
assay: NCI tumour cell line growth inhibition, 48 h
The source made the active and inactive calls. No stated cut-off is given here; in the data, active = GI50 up to about 1.1 µM and inactive = higher.
Listed molecules paired with reported GI50

molecule	GI50
O=C(O)c1nnsc1-c1csnn1	> 100 µM (inactive)
COc1ccc(C2c3cc4c(cc3OC(N3CCOCC3)C2C)OCO4)cc1 (stereo unspecified)	27.9 µM (inactive)
O=C(O)C(F)(F)C(F)(F)C(F)(F)C(F)(F)C(=O)O	> 100 µM (inactive)

Record `O=C1NC(N2CCCCC2)=N/C1=C\c1ccco1` . Reported GI50: > 100 µM (inactive)

---

Tested on: MDA-MB-435
assay: NCI tumour cell line growth inhibition, 48 h
The source made the active and inactive calls. Rule as the data show it: active = GI50 up to about 1.1 µM and inactive = higher.
Listed compounds paired with reported GI50

Some compounds with recorded GI50:
compound	GI50
COc1cc2c(cc1OCCCCCOc1cc3c(cc1OC)C(=O)N1CCC[C@H]1CN3)N=C[C@@H]1CCCN1C2=O	6.85 µM (inactive)
CC(=O)c1ccccc1NS(=O)(=O)c1ccc2nc(C)n(NS(=O)(=O)c3ccccc3C(C)=O)c(=O)c2c1	> 100 µM (inactive)
COc1ccc(-c2cc(-c3ccc(Nc4ccnc5cc(Cl)ccc45)cc3)[nH]c(=O)c2C#N)cc1	> 100 µM (inactive)
CCOC(=O)C(=Cc1ccccc1Br)C(=O)OCC	1.69 µM (inactive)

Here's the next entry for you.
Record Cn1c2c(c3ccccc31)CCN1C(=O)CN(C(=O)C3CCCCC3)CC21 (stereo not given) . Reported GI50: > 100 µM (inactive)

---

Listed compounds paired with reported GI50
System: HL-60
assay: NCI tumour cell line growth inhibition, 48 h
Active and inactive are the calls of the source. No stated cut-off is given here; in the data, active = GI50 up to about 1.1 µM and inactive = higher.

Some compounds with recorded GI50:
compound	GI50
Cc1ccsc1/C=N/Nc1cc(C)c2ccccc2n1	12.2 µM (inactive)
COc1ccc(NC(=S)N/N=C2\C(=O)Nc3ccccc32)cc1	2.49 µM (inactive)
CCC(=O)NC(Nc1ccccc1F)(C(F)(F)F)C(F)(F)F	> 100 µM (inactive)
CC1CCN(CCC(=O)CC(c2ccccc2)c2c(O)c3ccccc3oc2=O)CC1 (stereo unspecified)	> 100 µM (inactive)
CC(C)(C)OC(=O)NCC(=O)NC1CC=CCC1NC(=O)CNC(=O)OC(C)(C)C (stereo unspecified)	> 100 µM (inactive)

Record N#CC(NC12CC3CC(CC(C3)C1)C2)c1ccc2c(c1)OCO2 (stereo unspecified) . Reported GI50: > 100 µM (inactive)

Record `Cc1cc2c(cc1O)CC[C@@H]1[C@@H]2CC[C@]2(C)[C@@H](O)CC[C@@H]12` . Reported GI50: 1.73 µM (inactive)

Record `O=C1/C(=C/c2ccccc2S)N=C(c2ccccc2)N1c1nc2c(Cl)cc(Cl)cc2s1` . Reported GI50: 16.4 µM (inactive)

---

Listed molecules paired with reported GI50
Test system: 786-0
assay: NCI tumour cell line growth inhibition, 48 h
Activity calls are given as the source filed them. Cut-off read from the data, not from the text of the source: active = GI50 up to about 1.1 µM and inactive = higher.

Some molecules with recorded GI50:
molecule	testTarget	result
C/C(=C\CCC1=CC(=O)OC1)CCC1C2C(=O)CC(C)[C@@]3(C)CC[C@]1(C)[C@@]23C (stereo not given in full)	786-0	> 10 µM (inactive)
O=C1C(=O)N(c2ccc(Cl)cc2Cl)C(=O)C(=O)C1c1nc2ccccc2o1	786-0	> 100 µM (inactive)
O=C1C=C(C2=CC(=O)C(=O)c3ccccc32)c2ccccc2C1=O	786-0	13 µM (inactive)
NNC(=O)c1ccc(-n2nnc(C(=O)NN)c2C(=O)NN)cc1	786-0	> 100 µM (inactive)
COc1cc(OC)c(NC2=NCCO2)cc1Cl	786-0	30.1 µM (inactive)
C[C@@H]1[C@H](O)CC2=C(CC[C@@H](O)C2(C)C)[C@@]1(CO)CCc1ccoc1	786-0	> 50 µM (inactive)
CCC(C#N)NC(=O)NC(C#N)CC (stereo not given)	786-0	> 100 µM (inactive)
CC(C)(C)OC(=O)NC1CCCC1C(=O)C1=CCCC1 (stereo not given)	786-0	> 100 µM (inactive)

Record `Cc1cc2nc3c(=O)n(C)c(=O)nc-3n(-c3ccc(Cl)cc3)c2cc1C` . Reported GI50: 16.1 µM (inactive)

Record `CSc1ccc(/C=C2\N=C(c3ccccc3)N(/N=C3\C(=O)Nc4ccccc43)C2=O)cc1` . Reported GI50: > 100 µM (inactive)

---

System: PC-3
assay: NCI tumour cell line growth inhibition, 48 h
Activity calls are given as the source filed them. No stated cut-off is given here; in the data, active = GI50 up to about 1.1 µM and inactive = higher.
measuredParameter: GI50

Hey, PC-3 data for `CCN(CC)CCNc1ccc2nnn3c4ccc(OC(C)=O)cc4c(=O)c1c23` : GI50 came out at 3.62 µM (inactive)

---

Tested on: RPMI-8226
assay: NCI tumour cell line growth inhibition, 48 h
Calls of active or inactive are those of the source. Rule as the data show it: active = GI50 up to about 1.1 µM and inactive = higher.
measuredParameter: GI50

Some compounds with recorded GI50:
compound	testTarget	result
COc1ccc(-n2nnc3c(C#N)c(C)c(-c4ccccc4)n3c2=O)cc1	RPMI-8226	1.99 µM (inactive)
S=C(Nc1ccccc1)N(Cc1ccccc1)c1ccccc1	RPMI-8226	34.9 µM (inactive)
N#CCc1nc(-c2cc3c(ccc4ccccc43)oc2=O)cs1	RPMI-8226	> 100 µM (inactive)
COc1ccc2c(c1)OCc1c-2oc2ccccc2c1=O	RPMI-8226	> 100 µM (inactive)
Nc1[nH]c(Nc2ccc(Cl)c(Cl)c2)nc2ncnc1-2	RPMI-8226	14.5 µM (inactive)
CN(O)C(=O)c1ccccc1	RPMI-8226	> 100 µM (inactive)

Record CC(N)C(C)c1ccccc1 (stereo not drawn) . Reported GI50: > 100 µM (inactive)

Record `CN(C)CCN1N=Nc2cccc3cccc1c23` . Reported GI50: > 43.9 µM (inactive)

Record CCOC(=O)CSC1NC(C(=O)OC)CC1OC (stereo not drawn) . Reported GI50: > 100 µM (inactive)

Record `CCOC(=O)c1sc(Nc2cc(Cl)ccc2Cl)nc1C` . Reported GI50: 53.2 µM (inactive)

---

System: UACC-257
assay: NCI tumour cell line growth inhibition, 48 h
Calls of active or inactive are those of the source. Cut-off read from the data, not from the text of the source: active = GI50 up to about 1.1 µM and inactive = higher.
Classes to choose from: active, inactive

Test call, this compound: `O=C1CCCN(c2ccccc2)N1`
inactive

---

System: RPMI-8226
assay: NCI tumour cell line growth inhibition, 48 h
Calls of active or inactive are those of the source. No stated cut-off is given here; in the data, active = GI50 up to about 1.1 µM and inactive = higher.
measuredParameter: GI50

Some compounds with recorded GI50:
compound	testTarget	GI50
O=c1oc2ccccc2cc1-c1ccc([N+](=O)[O-])cc1	RPMI-8226	> 100 µM (inactive)
COc1ccc(/C=C/C=C2C(=O)NC(=S)NC2=O)cc1	RPMI-8226	4.91 µM (inactive)
NC1=NC2=C(CCCC2)C(c2cccs2)S1 (stereo not drawn)	RPMI-8226	61.7 µM (inactive)
NCCCNCCSP(=O)(O)O [AMIFOSTINE]	RPMI-8226	> 452 µM (inactive)
CN(Cc1ccccc1)/C(=N\C#N)N(Cc1ccccc1)Cc1ccccc1	RPMI-8226	21 µM (inactive)
O=C1NC(N2CCCCC2)=N/C1=C\c1ccco1	RPMI-8226	> 100 µM (inactive)
O=C(NNS(=O)(=O)c1ccc(Br)cc1)c1ccc(Cl)cc1NC(=O)C12CC3CC(CC(C3)C1)C2	RPMI-8226	4.49 µM (inactive)
Cn1c2c(c3ccccc31)CCN1C(=O)CN(C(=O)C3CCCCC3)CC21 (stereo not drawn)	RPMI-8226	> 100 µM (inactive)

Record `OCCN1CCN(CC/C=C2/c3ccccc3Sc3ccc(Cl)cc32)CC1` . Reported GI50: 9.82 µM (inactive)

Record Nc1ncnc2c1ncn2C1OC(CO)C(O)C1N (stereo not drawn) . Reported GI50: > 100 µM (inactive)

Record `Cc1[nH]c2c(C)ccc(C)c2c1CC(=O)O` . Reported GI50: 25.7 µM (inactive)

Record N#CC1(C#N)NC(c2ccccc2)C(C#N)(C#N)NC1c1ccccc1 (stereo not drawn) . Reported GI50: > 100 µM (inactive)

Record `CC1=C(C(=O)NCc2ccccc2)C(c2ccc(C3C(C(=O)NCc4ccccc4)=C(C)NC(C)=C3C(=O)NCc3ccccc3)cc2)C(C(=O)NCc2ccccc2)=C(C)N1` . Reported GI50: 6.65 µM (inactive)
